B1: CPEB3 Ribozyme (parent)
chain: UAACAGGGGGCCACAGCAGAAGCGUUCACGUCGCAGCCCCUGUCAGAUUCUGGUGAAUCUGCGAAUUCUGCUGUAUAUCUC

# Variants of: B1
# Assay notes: self-cleavage, relative activity (ratio to wild type); higher = more cleavage; in vitro, sequencing
Quantity kind: self-cleavage
Response field accepts a number only; no unit should be typed.

>  <Change>
G33A A47G

>  <self-cleavage>
0.4

$$$$
>  <Change>
A20C A45C

>  <self-cleavage>
0.35

$$$$
>  <Change>
G8U C40U

>  <self-cleavage>
0.11

$$$$
>  <Change>
U31A U69A

>  <self-cleavage>
0.29

$$$$
>  <Change>
U48C A64G

>  <self-cleavage>
0.41

$$$$
>  <Change>
G10A A21U

>  <self-cleavage>
0.13

$$$$
>  <Change>
G24A U54G

>  <self-cleavage>
0.15

$$$$
>  <Change>
A5G G46U

>  <self-cleavage>
0.4

$$$$

self-cleavage for U25C U43A is 0.34

self-cleavage for A18C A35U is 0.16

self-cleavage for A5C C37U is 0.76
